# Tested Target: T1, Hu/NoV/GII.2/Henryton/1971/U.S. VLP (human norovirus GII.2)
# T1 construct: mature; baculovirus VLP; VP2 may be present
# Test Protocol: VLP ELISA
minimum concentration of VHH able to recognize 100 ng of VLP: recorded values
Entry format: amount then unit.

Binder: VHH 4.1 (VHH, llama VHH, MD2004 library; pHEN6, C-terminal His6 tag; also called clone 4.1) VHH: QVKLQQSGGGLVQPGGSLRLSCAASESTISINTLGWYRQAPGNQRELVATITTGGTTNYADSVKGRFTISRDNAKNTVYLQMNNLEPGDTAVYYCNLKRRDLQSRFGGYWGQGTQVTVSS
Observed Value: 1 ng/well

If you can, please state the reported minimum concentration of VHH able to recognize 100 ng of VLP value of VHH 5.4 (VHH, llama VHH, MD2004 library; pHEN6, C-terminal His6 tag; also called clone 5.4) VHH: QVQLQQSGGGLVQPGGSLRLSCVASESTVSINIMGWYRQAPGKQRELVATITTGGTTNYADSVKGRFTISRDNAKNTVYLQMNSLEPEDTAVYYCNLKRRDLQARFGGYWGQGTQVTVSS .
2 ng/well

Name the recorded minimum concentration of VHH able to recognize 100 ng of VLP for VHH 19 (VHH, MD2004 library, subtractive biopanning; His6 tag; also called 19.1; clone 19) VHH: QVKLQQSGGGLVQPGGSLRLSCAASGFTFRNYAMSWVRQAPGKGLEWVSAIAAGGAVTKYADSVKGRFTISRDNARDTLYLQMNSLKPEDTAVYYCAKPRDFWYSPEFDFRGQGTQVTVSS .
2 ng/well

Query: minimum concentration of VHH able to recognize 100 ng of VLP; subject: VHH 7.5 (VHH, llama VHH, MD2004 library; pHEN6, C-terminal His6 tag; also called clone 7.5) VHH: QVKLQESGGGLVQAGESLRLSCAASGSNFSINGVGWYRQAPGKQRELVAGITNGGYTSYADSVKGRFTISTDNAKNTVYLQMNSLRPEDTAVYYCNANFQIHRSGADYVRNYWGQGTQVTVSA
1 ng/well
